Could you please report measured GI50 for the items listed next?
test system: HOP-62 NSCLC; assay: NCI tumour cell line growth inhibition, 48 h

Use the examples below as a reference point.
{"SMILES_DATA": "O=C1c2c(c3c4cc(F)ccc4oc3c3[nH]c4ccccc4c23)C(=O)N1O", "TEST_TARGET": "HOP-62 NSCLC", "GI50": "1.33 µM"}
{"SMILES_DATA": "COc1ccc2[nH]c3ccc4cc[n+](CCN5CCC(C6CCN(CC[n+]7ccc8ccc9[nH]c%10ccc(OC)cc%10c9c8c7)CC6)CC5)cc4c3c2c1", "TEST_TARGET": "HOP-62 NSCLC", "GI50": "34.4 µM"}
{"SMILES_DATA": "OCc1c(-c2cccs2)oc(-c2cccs2)c1CO", "TEST_TARGET": "HOP-62 NSCLC", "GI50": "> 100 µM"}
{"SMILES_DATA": "COc1ccc(-c2cn(C)c3c2-n2cccc2C3=O)cc1O", "TEST_TARGET": "HOP-62 NSCLC", "GI50": "5.93 µM"}
{"SMILES_DATA": "COc1ccc(-n2nc(C)c3c(Nc4ccc(NC(=O)Nc5cccc(C(F)(F)F)c5)cc4)ncnc32)cc1", "TEST_TARGET": "HOP-62 NSCLC", "GI50": "1.73 µM"}

Each of the following entries comes with a recorded value; kindly state GI50 for each.
1. CN1CCN(C2=C(Cl)C(=O)c3ccccc3C2=O)CC1
2. CC(C)(C)OC(=O)NCCCCCCCCCn1c2c(c3ccccc3c1=O)C(=O)c1ccccc1-2
3. CC(C)(C)OC(=O)N(CCCCN(CCCn1c2c(c3ccccc3c1=O)C(=O)c1ccccc1-2)C(=O)OC(C)(C)C)CCCn1c2c(c3ccccc3c1=O)C(=O)c1ccccc1-2
4. COc1ccc(C2=Nn3c(nnc3-c3ccc(F)c(Cl)c3)SC2)cc1

2.04 µM
24.8 µM
11 µM
> 100 µM

Please report the measured GI50 for O=C1/C(=C/c2ccc(F)cc2)COc2ccc(O)c(O)c21
3.43 µM

----------
test system: PC-3 prostate; assay: NCI tumour cell line growth inhibition, 48 h
Could you please report measured TGI for the items listed next?

Use the examples below as a reference point.
{"SMILES_DATA": "COc1cc(/C=C/C(=O)CC(=O)/C=C/c2cc(C)c(O)c(OC)c2)cc(C)c1O", "TGI": "> 100 µM"}
{"SMILES_DATA": "O=C1C=C(NCCc2ccc(O)c([N+](=O)[O-])c2)C(=O)c2[nH]cnc21", "TGI": "> 100 µM"}
{"SMILES_DATA": "CN(C)S(=O)(=O)c1cccc(C(=O)Nc2nc(-c3ccc(F)c(F)c3)cs2)c1", "TGI": "> 100 µM"}
{"SMILES_DATA": "O=C1c2ccccc2C(=O)N1c1ccc(Cc2ccc(N3C(=O)c4ccccc4C3=O)cc2)cc1", "TGI": "> 100 µM"}
{"SMILES_DATA": "CN1CCN(C2=C(Cl)C(=O)c3ccccc3C2=O)CC1", "TGI": "8.91 µM"}

Each of the following entries comes with a recorded value; kindly state TGI for each.
1. COc1ccc(-n2nc(C)c3c(Nc4ccc(NC(=O)Nc5cccc(C(F)(F)F)c5)cc4)ncnc32)cc1
2. O=NNc1ccc(-c2ccccc2)cn1
3. O=C(N/N=C\c1ccc(Cl)cc1)Nc1ccc2ccccc2c1

3.9 µM
61.2 µM
> 100 µM

Please report the measured TGI for O=c1c(NCc2ccccc2)c(C2(c3ccccc3F)SCCCS2)c1=O
> 100 µM

----------
system: HT29 colon; experiment: NCI tumour cell line growth inhibition, 48 h; in the data active means GI50 below about 0.43 µM; inactive means the rest
Can you answer with just one of these options? Y for active, N for inactive

Worked set:
{"SMILES_DATA": "CCN(Cc1ccc(Cl)c(Cl)c1)c1ccc2nc(N)nc(N)c2c1C", "CAT": "Y"}
{"SMILES_DATA": "COc1ccc(C2=Nn3c(nnc3-c3ccc(F)c(Cl)c3)SC2)cc1", "CAT": "N"}

Assay outcome for COc1ccc(Cn2cc3c(c2-c2ccccc2)CCc2cnoc2-3)cc1 : what was it?
Y

----------
system: NCI-H522 lung; test: NCI tumour cell line growth inhibition, 48 h
MEASURED_METRIC: TGI

{"COMPOUND": "CC(=O)/C=C1\\CC(=O)N(C)c2ccccc2N1", "TGI": "> 100 µM"}
{"COMPOUND": "COc1ccc(C2=Nn3c(nnc3-c3ccc(F)c(Cl)c3)SC2)cc1", "TGI": "> 100 µM"}
{"COMPOUND": "O=C1c2ccccc2C(=O)N1c1ccc(Cc2ccc(N3C(=O)c4ccccc4C3=O)cc2)cc1", "TGI": "> 100 µM"}
{"COMPOUND": "Cc1cc(=O)[nH]c2cc(NC(=O)C(C)NC(=O)C(C)NC(=O)C(C)NC(=O)OC(C)(C)C)ccc12 (stereo unspecified)", "TGI": "> 15 µM"}
{"COMPOUND": "CN1C/C(=C\\c2cccs2)C2=NN(c3ccccc3)C(c3cccs3)C2C1 (stereo unspecified)", "TGI": "> 100 µM"}
{"COMPOUND": "O=CNC(Cc1cnc[nH]1)C(=O)O (stereo unspecified)", "TGI": "> 100 µM"}

Each of the following entries comes with a recorded value; kindly state TGI for each.
1. O=C(n1c2ccccc2c2n[nH]c(=S)nc21)C(F)(F)F
2. O=C(CCCc1cccc2[nH]c3c(c12)CN(Cc1ccccc1)CC3)c1ccc(F)cc1
3. CC(=O)c1cc2c(Br)cccc2oc1=O

> 100 µM
> 91.1 µM
> 100 µM

Each of the following entries comes with a recorded value; kindly state TGI for each.
1. O=S(=O)(F)Cc1ccccc1
2. OCc1c(-c2cccs2)oc(-c2cccs2)c1CO
3. O=C(CC(C(=O)c1ccsc1)c1cccs1)c1ccccc1 (stereo unspecified)
4. Cc1nc2c(Cl)cc(Cl)cc2c2c1CCO2

1. > 100 µM
2. > 100 µM
3. > 100 µM
4. > 100 µM

Each of the following entries comes with a recorded value; kindly state TGI for each.
1. O=S1(=O)OCCOS(=O)(=O)C1(F)Cc1ccccc1
2. CN(C)N1C(=O)C(=O)N(c2cccc3ccccc23)C1=O
3. COC(=O)NC1(NC(=O)OC)NC(=O)c2ccccc2N1
4. CN(c1cccc(C(=O)O)c1)c1cc(O/N=[N+](\[O-])N(C)C)c([N+](=O)[O-])cc1[N+](=O)[O-]
5. NCCCn1c(Cl)nc2ccccc21
6. Nc1nc(N)nc(CCCCc2nc(N)nc(N)n2)n1

1. > 100 µM
2. > 10 µM
3. > 100 µM
4. > 100 µM
5. > 100 µM
6. > 100 µM

----------
tested on: MOLT-4 leukemia; test: NCI tumour cell line growth inhibition, 48 h
Could you please report measured GI50 for the items listed next?

{"SMILES_DATA": "COC(=O)CNC(=O)C(=O)c1c(O)c(O)c(C(C)C)c2cc(C)c(-c3c(C)cc4c(C(C)C)c(O)c(O)c(C(=O)C(=O)NCC(=O)OC)c4c3O)c(O)c12", "GI50": "1360 nM"}
{"SMILES_DATA": "COc1ccc(CCN2CCCn3c2nc2ccccc2c3=O)cc1", "GI50": "77.9 nM"}
{"SMILES_DATA": "O=C(CSSCC(=O)c1ccc(Cl)cc1)c1ccc(Cl)cc1", "GI50": "3280 nM"}

Each of the following entries comes with a recorded value; kindly state GI50 for each.
1. COc1cc(/C=C/C(=O)c2c(C)n([O-])c3ccccc3[n+]2=O)cc(OC)c1OC
2. CC(C)(C)OC(=O)NCCCCCCCCCn1c2c(c3ccccc3c1=O)C(=O)c1ccccc1-2
3. O=C1/C(=C/c2ccc(F)cc2)COc2ccc(O)c(O)c21

["3380 nM", "> 100000 nM", "1370 nM"]

----------
test system: ACHN renal; assay: NCI tumour cell line growth inhibition, 48 h
MEASURED_METRIC: TGI (µM)
Give bare numbers, in µM.

{"COMPOUND": "COc1cc(C[C@@]2(C)[C@@H]3CCC[C@H](CO)[C@@]3(C)CC[C@@H]2C)c(Cl)c(OC)c1", "TGI / µM": 29.4}
{"COMPOUND": "CCCCC[C@@H]1CCCC2NC(CCCCCO[Si](c3ccccc3)(c3ccccc3)C(C)(C)C)CCC21 (stereo not given in full)", "TGI / µM": 26.5}
{"COMPOUND": "O=c1cc(NNc2ccccc2)[nH]c(=O)[nH]1", "TGI / µM": 26.1}
{"COMPOUND": "COc1cc2c(cc1OC)C(CCN)=NCC2", "TGI / µM": 31.7}
{"COMPOUND": "Nc1[nH]nc(Nc2ccccc2)c1-c1nc2ccccc2s1", "TGI / µM": 6.27}

Now for another entry.
Please report the measured TGI for CC(NCCN(C)C)C1CCC2C3CCc4cc(O)ccc4C3CCC12C (stereo not given)
3.99
